- SYSTEM NAME: rat P2X4 rT186S mutant (Rattus norvegicus, UniProt P51577, T186S)
- Construct: rat P2X4 (NP_113782.1; WT and mutants) were transcribed from pGEMHE plasmids; expressed in transfected cells; host or cells: Xenopus laevis oocytes injected with cRNA from pGEMHE
- Sequence (P51577 whole entry T186S): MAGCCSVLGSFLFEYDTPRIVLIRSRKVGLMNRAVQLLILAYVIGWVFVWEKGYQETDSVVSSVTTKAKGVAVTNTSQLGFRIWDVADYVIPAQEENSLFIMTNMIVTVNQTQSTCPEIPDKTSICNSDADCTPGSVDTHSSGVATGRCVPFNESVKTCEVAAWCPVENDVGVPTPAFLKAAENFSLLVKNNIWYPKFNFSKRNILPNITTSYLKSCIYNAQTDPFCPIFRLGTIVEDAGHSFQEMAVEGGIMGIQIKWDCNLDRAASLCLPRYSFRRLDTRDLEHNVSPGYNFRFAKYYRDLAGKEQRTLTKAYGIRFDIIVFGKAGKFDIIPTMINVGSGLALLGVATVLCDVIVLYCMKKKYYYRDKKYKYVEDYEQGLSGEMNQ
- EXPERIMENT SUMMARY: Two-Electrode Voltage Clamp recording, rat P2X4 T186S mutant in Xenopus oocytes
- Type: cell-based
- ASSAY SETUP: oocytes held at −70 mV, n = 9, read-out: EC50 (evoked current, dose-response)
OBSERVABLE: EC50
Note to self: number, then unit, no commentary.

Nc1ncnc2c1ncn2[C@@H]1O[C@H](COP(=O)(O)OP(=O)(O)OP(=O)(O)O)[C@@H](O)[C@H]1O [ATP, Adenosine 5-triphosphate]
29.9 µM

Here is another compound to look at.
Any idea what its EC50 is? The compound is Nc1ccn([C@@H]2O[C@H](COP(=O)(O)OP(=O)(O)OP(=O)(O)O)[C@@H](O)[C@H]2O)c(=O)n1 557 µM

* * *

- SYSTEM NAME: rat P2X4 rH140R mutant (Rattus norvegicus, UniProt P51577, H140R)
- Construct: rat P2X4 (NP_113782.1; WT and mutants) were transcribed from pGEMHE plasmids
- Sequence (P51577 whole entry H140R): as the sequence (P51577 whole entry T186S) above, with H140R, S186T counted along it
- EXPERIMENT SUMMARY: Two-Electrode Voltage Clamp recording, rat P2X4 H140R mutant in Xenopus oocytes
- ASSAY SETUP: rH140R mutant; oocytes held at −70 mV; n = 9-10; read-out: EC50 (evoked current, dose-response)
OBSERVABLE: pEC50
# log scale: pEC50 equals minus log10 of the concentration in mol/L

Nc1ncnc2c1ncn2[C@@H]1O[C@H](COP(=O)(O)OP(=O)(O)OP(=O)(O)O)[C@@H](O)[C@H]1O [ATP, Adenosine 5-triphosphate]
4.40

Here is another compound to look at.
Any idea what its pEC50 is? The compound is Nc1ccn([C@@H]2O[C@H](COP(=O)(O)OP(=O)(O)OP(=O)(O)O)[C@@H](O)[C@H]2O)c(=O)n1 2.96
